System: GST-mGluR5 or GST-Shank3 (residues 1143-1408)
Test summary: GST pull-down binding of Homer EVH1 point mutants
Parameters: key: wild-type (+); (−) indicates substantially reduced binding relative to wild-type (+)
Condition parameters: GST pull-down of myc-tagged mutants from HEK293 lysates, relative to wild-type

Molecule: F67S: point mutant of the Homer EVH1 domain (protein, left off: small tags and cut ends, point mutant of the Homer EVH1 domain) MGEQPIFSTRAHVFQIDPNTKKNWVPTSKHAVTVSYFYDSTRNVYRIISLDGSKAIINSTITPNMTSTKTSQKFGQWADSRANTVYGLGFSSEHHLSKFAEKFQEFKEAARLAKEKSQEK
Binding: −
//
Molecule: R42E: point mutant of the Homer EVH1 domain (protein, left off: small tags and cut ends, point mutant of the Homer EVH1 domain) MGEQPIFSTRAHVFQIDPNTKKNWVPTSKHAVTVSYFYDSTENVYRIISLDGSKAIINSTITPNMTFTKTSQKFGQWADSRANTVYGLGFSSEHHLSKFAEKFQEFKEAARLAKEKSQEK
Binding: −
